TEST SYSTEM: DNA-dependent protein kinase catalytic subunit (Homo sapiens, UniProt P78527)
Sequence (P78527 whole entry): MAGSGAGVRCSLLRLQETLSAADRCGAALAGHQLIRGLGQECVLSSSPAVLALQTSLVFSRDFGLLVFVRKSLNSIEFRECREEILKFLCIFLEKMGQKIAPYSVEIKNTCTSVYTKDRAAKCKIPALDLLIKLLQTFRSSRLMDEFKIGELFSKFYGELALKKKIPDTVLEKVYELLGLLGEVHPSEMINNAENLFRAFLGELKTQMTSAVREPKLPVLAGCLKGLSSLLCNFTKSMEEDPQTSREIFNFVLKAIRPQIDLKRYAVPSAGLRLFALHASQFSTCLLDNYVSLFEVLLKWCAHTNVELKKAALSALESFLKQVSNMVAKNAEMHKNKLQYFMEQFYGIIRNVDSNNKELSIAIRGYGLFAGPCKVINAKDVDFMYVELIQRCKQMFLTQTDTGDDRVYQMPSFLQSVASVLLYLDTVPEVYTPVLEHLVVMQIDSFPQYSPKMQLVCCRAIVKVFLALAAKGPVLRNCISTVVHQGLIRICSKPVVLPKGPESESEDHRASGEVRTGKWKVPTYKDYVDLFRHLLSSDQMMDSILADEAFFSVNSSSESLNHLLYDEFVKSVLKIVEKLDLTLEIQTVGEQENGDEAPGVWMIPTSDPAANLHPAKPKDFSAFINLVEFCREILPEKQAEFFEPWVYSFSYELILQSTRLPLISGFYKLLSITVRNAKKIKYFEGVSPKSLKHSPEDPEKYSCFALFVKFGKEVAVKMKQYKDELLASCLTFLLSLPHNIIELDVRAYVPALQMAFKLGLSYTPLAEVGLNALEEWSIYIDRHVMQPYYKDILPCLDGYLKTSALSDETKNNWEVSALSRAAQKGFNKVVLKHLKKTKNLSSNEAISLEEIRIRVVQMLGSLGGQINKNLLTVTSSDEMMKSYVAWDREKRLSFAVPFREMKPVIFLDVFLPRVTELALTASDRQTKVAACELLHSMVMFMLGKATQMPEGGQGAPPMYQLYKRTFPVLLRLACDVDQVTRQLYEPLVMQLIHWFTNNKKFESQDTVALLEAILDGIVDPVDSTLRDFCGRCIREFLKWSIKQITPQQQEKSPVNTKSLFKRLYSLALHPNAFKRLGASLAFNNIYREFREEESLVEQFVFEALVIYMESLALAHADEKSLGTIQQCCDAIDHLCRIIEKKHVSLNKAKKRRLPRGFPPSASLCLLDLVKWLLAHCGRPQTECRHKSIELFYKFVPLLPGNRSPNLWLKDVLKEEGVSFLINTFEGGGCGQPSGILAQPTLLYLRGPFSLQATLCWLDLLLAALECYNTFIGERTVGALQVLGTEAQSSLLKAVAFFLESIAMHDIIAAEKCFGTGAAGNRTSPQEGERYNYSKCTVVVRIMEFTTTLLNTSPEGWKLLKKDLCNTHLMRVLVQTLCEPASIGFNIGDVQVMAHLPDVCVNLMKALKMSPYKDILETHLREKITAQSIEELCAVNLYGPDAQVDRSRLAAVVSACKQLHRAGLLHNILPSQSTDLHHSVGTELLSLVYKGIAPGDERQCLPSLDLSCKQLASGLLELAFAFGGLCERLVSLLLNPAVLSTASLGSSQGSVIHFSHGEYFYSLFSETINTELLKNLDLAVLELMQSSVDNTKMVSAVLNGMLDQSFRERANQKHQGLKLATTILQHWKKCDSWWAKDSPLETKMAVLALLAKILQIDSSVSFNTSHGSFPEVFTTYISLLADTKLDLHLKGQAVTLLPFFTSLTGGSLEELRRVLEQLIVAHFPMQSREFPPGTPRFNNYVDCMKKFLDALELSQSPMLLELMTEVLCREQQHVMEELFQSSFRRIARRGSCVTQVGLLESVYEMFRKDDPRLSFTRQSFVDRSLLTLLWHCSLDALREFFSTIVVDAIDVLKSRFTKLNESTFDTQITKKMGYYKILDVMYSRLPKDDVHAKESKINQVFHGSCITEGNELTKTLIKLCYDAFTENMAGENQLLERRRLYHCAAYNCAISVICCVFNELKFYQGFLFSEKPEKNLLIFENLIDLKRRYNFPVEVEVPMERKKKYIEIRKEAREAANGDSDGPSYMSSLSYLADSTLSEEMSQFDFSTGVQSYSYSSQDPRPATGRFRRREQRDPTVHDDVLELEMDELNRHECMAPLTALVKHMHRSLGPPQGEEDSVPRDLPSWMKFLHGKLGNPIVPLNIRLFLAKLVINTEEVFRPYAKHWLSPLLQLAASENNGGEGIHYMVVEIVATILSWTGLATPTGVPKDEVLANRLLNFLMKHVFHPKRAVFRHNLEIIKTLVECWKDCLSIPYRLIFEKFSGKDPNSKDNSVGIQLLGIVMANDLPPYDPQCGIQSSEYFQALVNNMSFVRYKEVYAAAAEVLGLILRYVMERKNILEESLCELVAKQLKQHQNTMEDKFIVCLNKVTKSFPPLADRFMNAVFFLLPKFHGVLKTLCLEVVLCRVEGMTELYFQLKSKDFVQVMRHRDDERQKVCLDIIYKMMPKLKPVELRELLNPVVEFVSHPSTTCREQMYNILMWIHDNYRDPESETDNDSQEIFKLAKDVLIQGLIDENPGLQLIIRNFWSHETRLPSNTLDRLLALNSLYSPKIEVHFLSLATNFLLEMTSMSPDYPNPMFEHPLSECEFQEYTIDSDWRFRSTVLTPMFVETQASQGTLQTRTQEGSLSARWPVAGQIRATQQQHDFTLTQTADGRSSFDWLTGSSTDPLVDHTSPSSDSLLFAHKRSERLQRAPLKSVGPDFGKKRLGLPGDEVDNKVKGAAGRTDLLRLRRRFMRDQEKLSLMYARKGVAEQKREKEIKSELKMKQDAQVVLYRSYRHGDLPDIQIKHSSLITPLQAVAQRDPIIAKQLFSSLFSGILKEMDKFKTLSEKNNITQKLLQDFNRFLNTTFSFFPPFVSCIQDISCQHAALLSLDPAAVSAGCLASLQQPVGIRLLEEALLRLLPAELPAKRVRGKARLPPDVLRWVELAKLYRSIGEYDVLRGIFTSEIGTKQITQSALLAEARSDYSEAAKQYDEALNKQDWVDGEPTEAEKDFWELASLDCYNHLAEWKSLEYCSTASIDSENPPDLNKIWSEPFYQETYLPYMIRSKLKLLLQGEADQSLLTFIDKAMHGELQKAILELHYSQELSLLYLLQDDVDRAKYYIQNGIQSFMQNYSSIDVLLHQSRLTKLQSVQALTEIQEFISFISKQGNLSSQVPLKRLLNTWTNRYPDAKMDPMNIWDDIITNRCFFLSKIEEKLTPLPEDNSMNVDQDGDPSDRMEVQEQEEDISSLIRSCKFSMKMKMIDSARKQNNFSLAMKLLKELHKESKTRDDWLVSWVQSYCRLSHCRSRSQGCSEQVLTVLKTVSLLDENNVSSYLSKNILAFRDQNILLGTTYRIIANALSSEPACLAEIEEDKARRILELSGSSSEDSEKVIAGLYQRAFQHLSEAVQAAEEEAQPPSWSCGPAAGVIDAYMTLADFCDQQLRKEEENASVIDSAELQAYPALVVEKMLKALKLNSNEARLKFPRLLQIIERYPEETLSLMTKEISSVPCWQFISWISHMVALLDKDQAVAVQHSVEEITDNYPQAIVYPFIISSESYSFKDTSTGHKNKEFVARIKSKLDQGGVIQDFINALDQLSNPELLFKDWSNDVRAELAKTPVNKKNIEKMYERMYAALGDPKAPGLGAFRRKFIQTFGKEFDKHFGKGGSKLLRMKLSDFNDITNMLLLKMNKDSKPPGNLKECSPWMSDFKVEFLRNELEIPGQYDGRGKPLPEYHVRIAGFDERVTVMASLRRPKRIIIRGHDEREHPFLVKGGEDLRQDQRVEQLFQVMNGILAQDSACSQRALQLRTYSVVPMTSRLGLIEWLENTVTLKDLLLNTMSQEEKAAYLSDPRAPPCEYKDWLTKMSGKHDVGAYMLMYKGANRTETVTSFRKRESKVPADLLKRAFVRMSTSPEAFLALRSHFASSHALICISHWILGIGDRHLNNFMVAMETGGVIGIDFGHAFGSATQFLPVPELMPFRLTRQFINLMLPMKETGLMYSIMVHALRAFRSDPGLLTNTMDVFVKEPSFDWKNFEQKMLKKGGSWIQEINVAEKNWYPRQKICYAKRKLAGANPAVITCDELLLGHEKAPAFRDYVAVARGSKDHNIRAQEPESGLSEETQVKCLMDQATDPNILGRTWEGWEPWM
PROCEDURE DETAILS: Inhibition of human HeLa cell nuclear extract purified DNA-PK using p53 peptide as substrate by ELISA
VALUE KIND: pIC50
Give bare numbers, as −log10 of the molar value.

State the recorded pIC50 for this entry: O=c1cc(N2CCOCC2)oc2c(-c3cccc4c3sc3ccccc34)cccc12
7.85

====

PROCEDURE DETAILS: Ratio of drug level in spleen to plasma of human SW620 cell xenografted athymic nude CD1 mouse at 10 mg/kg, ip measured after 90 mins by HPLC analysis
Assay type: ADME, organism-based
VALUE KIND: Kp at 1.5 h
Numbers only.

Entry under review: O=c1cc(N2CCOCC2)oc2c(-c3cccc4c3sc3ccccc34)cccc12 . Reported Kp at 1.5 h?
8.7

====

PROCEDURE DETAILS: AUCinfinity in BALB/c mouse at 10 mg/kg, ip by HPLC analysis
Type: ADME, organism-based
MEASUREMENT CONDITIONS: in vivo
VALUE KIND: AUC(0-inf)
Could you kindly put the unit after your number?

So what's the measured AUC(0-inf) for this one? O=c1cc(N2CCOCC2)oc2c(-c3cccc4c3sc3ccccc34)cccc12
2530 ng·h/mL

====

PROCEDURE DETAILS: Clearance in BALB/c mouse at 10 mg/kg, po by HPLC analysis
Assay type: ADME, organism-based
MEASUREMENT CONDITIONS: in vivo
VALUE KIND: CL/F (mL/min/kg)
Give bare numbers, in mL/min/kg.

CL/F for O=c1cc(N2CCOCC2)oc2c(-c3cccc4c3sc3ccccc34)cccc12 ?
140

====

PROCEDURE DETAILS: Ratio of drug level in liver to plasma of human SW620 cell xenografted athymic nude CD1 mouse at 10 mg/kg, ip measured after 240 mins by HPLC analysis
Type: ADME, organism-based
VALUE KIND: Kp at 4 h
Answers are plain numbers.

Find the recorded Kp at 4 h belonging to O=c1cc(N2CCOCC2)oc2c(-c3cccc4c3sc3ccccc34)cccc12 and report it.
5

====

PROCEDURE DETAILS: Ratio of drug level in tumor to plasma of human SW620 cell xenografted athymic nude CD1 mouse at 10 mg/kg, ip measured after 15 mins by HPLC analysis
Format: ADME, organism-based
MEASUREMENT CONDITIONS: tumor and plasma
VALUE KIND: Kp at 0.25 h
One number for each entry.

Which Kp at 0.25 h reading was recorded for the compound O=c1cc(N2CCOCC2)oc2c(-c3cccc4c3sc3ccccc34)cccc12 ?
0.38

====

PROCEDURE DETAILS: Ratio of drug level in tumor to plasma of human SW620 cell xenografted athymic nude CD1 mouse at 10 mg/kg, ip measured after 90 mins by HPLC analysis
Format: ADME, organism-based
MEASUREMENT CONDITIONS: tumor and plasma
VALUE KIND: Kp at 1.5 h
One number for each entry.

Give the measured Kp at 1.5 h of O=c1cc(N2CCOCC2)oc2c(-c3cccc4c3sc3ccccc34)cccc12 .
1.5

====

PROCEDURE DETAILS: Selectivity ratio of LD90 for cytotoxicity against Chinese hamster DNA-PK proficient V3-YAC cells to LD90 for cytotoxicity against Chinese hamster DNA-PK deficient V3 cells
Type: toxicity, cell-based, Cricetulus griseus
VALUE KIND: selectivity ratio
Numbers only.

Recorded selectivity ratio of COc1cc([C@@H]2c3cc4c(cc3[C@@H](O[C@@H]3O[C@@H]5CO[C@@H](C)O[C@H]5[C@H](O)[C@H]3O)[C@H]3COC(=O)[C@H]23)OCO4)cc(OC)c1O [ETOPOSIDE] , please.
3

====

PROCEDURE DETAILS: Cmax in BALB/c mouse at 10 mg/kg, po by HPLC analysis
Assay type: ADME, organism-based
MEASUREMENT CONDITIONS: in vivo
VALUE KIND: Cmax (ng/mL)
One number for each entry, in ng/mL.

May I ask what Cmax has been recorded for O=c1cc(N2CCOCC2)oc2c(-c3cccc4c3sc3ccccc34)cccc12 ?
500

====

PROCEDURE DETAILS: Growth inhibition of human LoVo cells measured after 5 days by crystal violet staining based assay
Assay type: toxicity, cell-based
MEASUREMENT CONDITIONS: time 5 day
VALUE KIND: GI50 at 120 h (nM)
Numbers only, in nM.

What does the record list as GI50 at 120 h for O=c1cc(N2CCOCC2)oc2c(-c3cccc4c3sc3ccccc34)cccc12 ?
520

====

PROCEDURE DETAILS: Ratio of drug level in liver to plasma of human SW620 cell xenografted athymic nude CD1 mouse at 10 mg/kg, ip measured after 15 mins by HPLC analysis
Type: ADME, organism-based
VALUE KIND: Kp at 0.25 h
Numbers only.

Which Kp at 0.25 h is listed for O=c1cc(N2CCOCC2)oc2c(-c3cccc4c3sc3ccccc34)cccc12 ?
6.4

====

PROCEDURE DETAILS: AUCinfinity in BALB/c mouse at 10 mg/kg, po by HPLC analysis
Format: ADME, organism-based
MEASUREMENT CONDITIONS: in vivo
VALUE KIND: AUC(0-inf) (ng·h/mL)
One number for each entry, in ng·h/mL.

Would you mind telling me what AUC(0-inf) value was observed for O=c1cc(N2CCOCC2)oc2c(-c3cccc4c3sc3ccccc34)cccc12 ?
1200

====

PROCEDURE DETAILS: Growth inhibition of human SW620 cells at 1 umol/L measured after 5 days by crystal violet staining based assay relative to control
Format: toxicity, cell-based, SW-620
MEASUREMENT CONDITIONS: dose 1 µmol/L, time 5 day, read-out: GI
VALUE KIND: inhibition at 120 h, 1 µM (%)
One number for each entry, in %.

Fill in: inhibition at 120 h, 1 µM of O=c1cc(N2CCOCC2)oc2c(-c3cccc4c3sc3ccccc34)cccc12 is ___
8

====

PROCEDURE DETAILS: Ratio of drug level in brain to plasma of human SW620 cell xenografted athymic nude CD1 mouse at 10 mg/kg, ip measured after 15 mins by HPLC analysis
Format: ADME, organism-based
MEASUREMENT CONDITIONS: brain and plasma, read-out: BPR
VALUE KIND: Kp at 0.25 h
One number for each entry.

Kp at 0.25 h for O=c1cc(N2CCOCC2)oc2c(-c3cccc4c3sc3ccccc34)cccc12 ?
1.1

====

PROCEDURE DETAILS: Bioavailability in BALB/c mouse at 10 mg/kg, ip by HPLC analysis
Type: ADME, organism-based
MEASUREMENT CONDITIONS: in vivo
VALUE KIND: bioavailability (%)
Give bare numbers, in %.

Which bioavailability is reported for this compound? O=c1cc(N2CCOCC2)oc2c(-c3cccc4c3sc3ccccc34)cccc12
100

====

PROCEDURE DETAILS: Ratio of drug level in spleen to plasma of human SW620 cell xenografted athymic nude CD1 mouse at 10 mg/kg, ip measured after 240 mins by HPLC analysis
Type: ADME, organism-based
VALUE KIND: Kp at 4 h
One number for each entry.

Reported Kp at 4 h for O=c1cc(N2CCOCC2)oc2c(-c3cccc4c3sc3ccccc34)cccc12 : what is it?
19

====

PROCEDURE DETAILS: Ratio of drug level in kidney to plasma of human SW620 cell xenografted athymic nude CD1 mouse at 10 mg/kg, ip measured after 15 mins by HPLC analysis
Format: ADME, organism-based
MEASUREMENT CONDITIONS: kidney and plasma
VALUE KIND: Kp at 0.25 h
One number for each entry.

Consider the molecule O=c1cc(N2CCOCC2)oc2c(-c3cccc4c3sc3ccccc34)cccc12 and give its measured Kp at 0.25 h.
4.2
